We begin with a simple list: items and their reported activity (normalised, proliferation).
# Assay Protocol: qHTS profiling of inhibitors of Plasmodium falciparum (HB3) proliferation (acoustic dispense)
# Details: P. falciparum HB3 in erythrocytes, SYBR Green, 72 h; at 49.8 µM (top of the series) unless noted

Previously resolved entries follow.
Molecular String	Assay Value
CO[C@H]1C=CO[C@@]2(C)Oc3c(C)c(O)c4c(O)c(c(C=NN5CCN(C)CC5)c(O)c4c3C2=O)NC(=O)C(C)=CC=C[C@H](C)[C@H](O)[C@@H](C)[C@@H](O)[C@@H](C)[C@H](OC(C)=O)[C@H]1C	-0.914% [at 16.5 µM]
CCNC(=O)c1noc(-c2cc(C(C)C)c(O)cc2O)c1-c1ccc(CN2CCOCC2)cc1	117%
COc1cc(NCc2ccc3nc(N)nc(N)c3c2C)cc(OC)c1OC	-2.34%
COc1cc2c(Oc3ccc(NC(=O)C4(C(=O)Nc5ccc(F)cc5)CC4)cc3F)ccnc2cc1OCCCN1CCOCC1	17.9%
CC(C)C[C@H](NC(=O)[C@H](CCc1ccccc1)NC(=O)CN1CCOCC1)C(=O)N[C@@H](Cc1ccccc1)C(=O)N[C@@H](CC(C)C)C(=O)[C@@]1(C)CO1	0.732%
CCC(C=C[C@@H]1OC(=O)C=C[C@H]1C)=C[C@H](C)CC=CC(C)=C[C@@H](C)C(=O)[C@@H](C)[C@H](O)[C@@H](C)CC(C)=CC(=O)O	105% [at 1.88 µM]

Now examine the next entry.
Ask | Find the recorded activity (normalised, proliferation) belonging to CCOC(=O)[C@H](CCc1ccccc1)N[C@H]1CS[C@H](c2cccs2)CN(CC(=O)O)C1=O and report it.
Reply | 67.9%

* * *

# Assay Protocol: qHTS profiling of inhibitors of Plasmodium falciparum (HB3) proliferation (acoustic dispense)
# Details: P. falciparum HB3 in erythrocytes, SYBR Green, 72 h; at 49.8 µM (top of the series) unless noted
activity (normalised, proliferation): recorded values
# value in %; strip the unit string

Check out these entries, answers already filled in.
Molecular String	activity (normalised, proliferation), %
Cc1cn[nH]c1	39.3
COc1ncnc(NS(=O)(=O)c2ccc(N)cc2)c1OC	102
CCS(=O)(=O)Nc1ccc2[nH]c(O)c(C(=Nc3ccc(CN4CCCCC4)cc3)c3ccccc3)c2c1	-1.43
C[C@H](Cn1cnc2c(N)ncnc21)OCP(=O)(O)O	92.2
Cc1cn(-c2cc(NC(=O)c3ccc(C)c(Nc4nccc(-c5cccnc5)n4)c3)cc(C(F)(F)F)c2)cn1	1.32

Ask | What value of measured activity (normalised, proliferation) is listed for Nc1ccc(-c2ccc3ncc4ccc(=O)n(-c5cccc(C(F)(F)F)c5)c4c3c2)cn1 ?
Reply | -1.37

* * *

# Assay Protocol: qHTS profiling of inhibitors of Plasmodium falciparum (HB3) proliferation (acoustic dispense)
# Details: P. falciparum HB3 in erythrocytes, SYBR Green, 72 h; at 49.8 µM (top of the series) unless noted
Below is a list of entries, each paired with its recorded activity (normalised, proliferation) value.
The response must be a number in % with no trailing unit.

Compound	Reported Endpoint	Assay Value
CN(Cc1cnc2nc(N)nc(N)c2n1)c1ccc(C(=O)N[C@@H](CCC(=O)O)C(=O)O)cc1	activity (normalised, proliferation)	0.621
O=C(Nc1cn[nH]c1-c1nc2ccc(CN3CCOCC3)cc2[nH]1)NC1CC1	activity (normalised, proliferation)	1.76
COc1cc([C@@H]2c3cc4c(cc3[C@@H](O[C@@H]3O[C@@H]5CO[C@@H](c6cccs6)O[C@@H]5[C@H](O)[C@@H]3O)[C@H]3COC(=O)[C@H]23)OCO4)cc(OC)c1O	activity (normalised, proliferation)	-0.0351
Cc1cnc(Nc2ccc(CN3CCOCC3)cc2)nc1Nc1cccc(S(=O)(=O)NC(C)(C)C)c1	activity (normalised, proliferation)	0.609
CC1(CN2CCC(n3c(=O)[nH]c4ccccc43)CC2)OCc2ccccc2-n2cccc21 (stereo not given)	activity (normalised, proliferation)	24.8

Ask | Item under review: CN([C@@H](Cc1ccc(OS(=O)(=O)c2cccc3cnccc23)cc1)C(=O)N1CCN(c2ccccc2)CC1)S(=O)(=O)c1cccc2cnccc12 . Reported activity (normalised, proliferation)?
Reply | 0.0465

Ask | Thanks! And COc1ccc(-c2nc(N3CCOCC3)c3sc(CN(C)c4ncc(C(=O)NO)cn4)cc3n2)cn1 ?
Reply | -1.14

Ask | Also CSc1cccc(Nc2ncc3cc(-c4c(Cl)cccc4Cl)c(=O)n(C)c3n2)c1 , if possible.
Reply | 3

Ask | Query COC1=C2C[C@@H](C)C[C@H](OC)[C@@H](O)[C@@H](C)C=C(C)[C@H](OC(N)=O)[C@@H](OC)C=CC=C(C)C(=O)NC(=CC1=O)C2=O next
Reply | -2.24

Ask | Cool, now CCc1nc(N)nc(N)c1-c1ccc(Cl)cc1
Reply | 0.0675

Ask | What about this compound? Cn1c(=O)c(-c2c(Cl)cccc2Cl)cc2cnc(Nc3cccc(C(=O)O)c3)nc21
Reply | 16.3

Ask | Similarly, CN[C@@H](C)C(=O)N[C@H]1CCCC[C@H]2CC[C@@H](C(=O)N[C@@H](c3ccccc3)c3cn(CCCCc4ccc(CCCCn5cc([C@@H](NC(=O)[C@@H]6CC[C@@H]7CCCC[C@H](NC(=O)[C@H](C)NC)C(=O)N76)c6ccccc6)nn5)cc4)nn3)N2C1=O ?
Reply | 0.411

Ask | Record: O=C(Nc1ccc([N+](=O)[O-])cc1Cl)c1cc(Cl)ccc1O
Reply | 99.3

Ask | Now try CC(C=CC(=O)NO)=C[C@@H](C)C(=O)c1ccc(N(C)C)cc1 .
Reply | -0.304

Ask | Can you handle COCCn1c2c([n+](Cc3cnccn3)c1C)C(=O)c1ccccc1C2=O next?
Reply | -1.3

Ask | And what about the compound C=CCn1c(=O)c2cnc(Nc3ccc(N4CCN(C)CC4)cc3)nc2n1-c1cccc(C(C)(C)O)n1 ?
Reply | -0.406

Ask | What would you report for CCN(CC)CCCC(C)Nc1ccnc2cc(Cl)ccc12 (stereo not given) ?
Reply | -0.388

Ask | Here is the next compound: c1cncc(CN2CCC(n3ncc4c(N5CCOCC5)nc(-c5ccc6[nH]ccc6c5)nc43)CC2)c1
Reply | -0.669
